Sourced from ChEMBL document CHEMBL5046222

Species on record: Rattus norvegicus
Conditions: in vivo, ip, 10 min
Measured MED values are reported for all entries that follow.
measurementName: MED (mg/kg)

[[record]]
smilesrecord = "CN1C(=O)CN=C(c2ccccc2)c2cc(Cl)ccc21"
measurementname = "MED"
unitofmeasurement = "mg/kg"
reportedresult = 3

[[record]]
smilesrecord = "O=C1CC2(CCCC2)CC(=O)N1CCCCN1CCN(c2ncccn2)CC1"
measurementname = "MED"
unitofmeasurement = "mg/kg"
reportedresult = 1

[[record]]
smilesrecord = "CN(C)CCCN1c2ccccc2CCc2ccccc21"
measurementname = "MED"
unitofmeasurement = "mg/kg"
reportedresult = 10

[[record]]
smilesrecord = "CC(C)COc1ccc(CNC(=O)N(Cc2ccc(F)cc2)C2CCN(C)CC2)cc1"
measurementname = "MED"
unitofmeasurement = "mg/kg"
reportedresult = 0.1

